B1: glmS ribozyme (parent)
chain: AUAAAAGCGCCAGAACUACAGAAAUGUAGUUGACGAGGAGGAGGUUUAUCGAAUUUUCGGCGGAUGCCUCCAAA

# Variants of: B1
# METHOD_NOTES: self-cleavage kobs at 640 uM GlcN6P; higher = faster cleavage; RNA array
# RUN_CONDITIONS: with glucosamine-6-phosphate
Fewer inactive variants are shown than the library holds.
Please note: met applies when self-cleavage kobs at 640 uM GlcN6P is 0.0001 s⁻¹ or greater, and not met applies otherwise.

{"MUTATION_ID": "C8U G62A C70U", "CLASS_ASSIGNMENT": "not met"}
{"MUTATION_ID": "U69G C70A", "CLASS_ASSIGNMENT": "not met"}
{"MUTATION_ID": "C16U G29A", "CLASS_ASSIGNMENT": "met"}
{"MUTATION_ID": "U45G A53U", "CLASS_ASSIGNMENT": "met"}
{"MUTATION_ID": "A12G C34G U47C", "CLASS_ASSIGNMENT": "not met"}
{"MUTATION_ID": "G29C A33C C61G C68U", "CLASS_ASSIGNMENT": "not met"}
{"MUTATION_ID": "C34U G38U G43C", "CLASS_ASSIGNMENT": "not met"}
{"MUTATION_ID": "A14C C16A G43U C68U", "CLASS_ASSIGNMENT": "not met"}
{"MUTATION_ID": "A52U G60A G66C", "CLASS_ASSIGNMENT": "not met"}
{"MUTATION_ID": "C16G G41C G62A A64G", "CLASS_ASSIGNMENT": "not met"}
{"MUTATION_ID": "G13U", "CLASS_ASSIGNMENT": "met"}
{"MUTATION_ID": "A6G G51C", "CLASS_ASSIGNMENT": "not met"}
{"MUTATION_ID": "C11G G41U A48G A52C", "CLASS_ASSIGNMENT": "not met"}
{"MUTATION_ID": "C16A U47G", "CLASS_ASSIGNMENT": "not met"}
{"MUTATION_ID": "C34G A53C A64C", "CLASS_ASSIGNMENT": "not met"}
{"MUTATION_ID": "U31C A64U U65A", "CLASS_ASSIGNMENT": "not met"}
{"MUTATION_ID": "G32U C58U", "CLASS_ASSIGNMENT": "met"}
{"MUTATION_ID": "A15U U49C", "CLASS_ASSIGNMENT": "not met"}
{"MUTATION_ID": "C16G U30C", "CLASS_ASSIGNMENT": "not met"}
{"MUTATION_ID": "U30C U54C", "CLASS_ASSIGNMENT": "not met"}
{"MUTATION_ID": "A36U U46C U49A C68G", "CLASS_ASSIGNMENT": "not met"}
